kon for assorted binders
Biological target: T1, monkey CD73 (Novoprotein, Cat No. C121) (monkey, UniProt A0A2K5V5U7 27-549)
T1 construct: Bought protein; also called monkey CD73 protein
T1 sequence: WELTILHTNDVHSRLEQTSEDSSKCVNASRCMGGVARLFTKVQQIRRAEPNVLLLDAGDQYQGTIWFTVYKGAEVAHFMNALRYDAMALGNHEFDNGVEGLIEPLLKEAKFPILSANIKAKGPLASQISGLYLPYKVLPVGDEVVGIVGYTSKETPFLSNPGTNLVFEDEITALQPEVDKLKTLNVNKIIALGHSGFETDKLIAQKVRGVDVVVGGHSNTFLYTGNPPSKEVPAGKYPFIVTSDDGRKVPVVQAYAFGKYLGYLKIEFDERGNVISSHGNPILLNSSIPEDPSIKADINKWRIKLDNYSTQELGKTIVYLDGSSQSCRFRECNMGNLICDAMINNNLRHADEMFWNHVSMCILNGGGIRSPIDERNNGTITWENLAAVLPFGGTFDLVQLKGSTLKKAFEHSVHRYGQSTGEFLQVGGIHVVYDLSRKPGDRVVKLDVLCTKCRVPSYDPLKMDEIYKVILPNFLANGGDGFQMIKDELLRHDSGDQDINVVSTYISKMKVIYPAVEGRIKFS
Experiment: SPR (Biacore T200), antibody captured on protein A chip, CD73 as analyte, 1:1 model
All answers are understood in M⁻¹ s⁻¹, so give the number only.

Exercise: What does the record list as kon for 900697 (antibody, V domains shown, Constant regions are not restated) VH: QVQLVESGGGLVKPGGSLRLSCAASGFTFSKYAMSWVRQAPGKGLEWVAEISSGGGYINYADSVTGRFTISRDNAKNSLYLQMNSLRAEDTAVYYCARAIYYYGSSYNYYAMDYWGQGTTVTVSS VL: DIQMTQSPSSLSASVGDRVTITCRASQDVGTAEAWYQQKPGKAPKLLIYWASTLQSGVPSRFSGSGSGTDFTLTISSLQPEDFATYYCQQYSSYPLTFGQGTKLEIK ?
Solution: 64100
